- Run Parameters: 298.15 K; 101.33 kPa; Liquid; Sing-around technique in a fixed-path interferometer
Readout Name: speed of sound (m/s)
Give the number; m/s is assumed, so skip it.

**Q:** For the compound c1ccsc1 , give its reported speed of sound.
**A:** 1259

**Q:** For the compound CCCCCC , give its reported speed of sound.
**A:** 1077.2

**Q:** For the compound C1CCCCC1 , give its reported speed of sound.
**A:** 1253.7

**Q:** For the compound CCOS(=O)(=O)[O-].CCn1cc[n+](C)c1 [1-ethyl-3-methylimidazolium ethyl sulfate] , give its reported speed of sound.
**A:** 1680.2

**Q:** For the compound CCCCCCn1cc[n+](C)c1.[Br-] [3-hexyl-1-methyl-1H-imidazolium bromide] , give its reported speed of sound.
**A:** 1587.5

* * *

- Run Parameters: 298.15 K; 101.33 kPa; Liquid; Vibrating tube method
Readout Name: mass density (kg/m3)
Give the number; kg/m3 is assumed, so skip it.

// known answers, use as guide
CCCCCCn1cc[n+](C)c1.[Br-] [3-hexyl-1-methyl-1H-imidazolium bromide] : 1223.81
C1CCCCC1 : 773.87

**Q:** For the compound CCOS(=O)(=O)[O-].CCn1cc[n+](C)c1 [1-ethyl-3-methylimidazolium ethyl sulfate] , give its reported mass density.
**A:** 1237.72

**Q:** For the compound c1ccsc1 , give its reported mass density.
**A:** 1058.56

**Q:** For the compound CCCCCC , give its reported mass density.
**A:** 655.175

* * *

refractive index values for the molecules below.
- Protocol Text: refractive index (Na D-line) (dimensionless)
- Run Parameters: 298.15 K; 101.33 kPa; Liquid; Standard Abbe refractometry
Number only, no unit.

c1ccsc1 : 1.5252
CCCCCC : 1.3722
CCCCCCn1cc[n+](C)c1.[Br-] [3-hexyl-1-methyl-1H-imidazolium bromide] : 1.5308
C1CCCCC1 : 1.4235

Next molecule, please.
**Q:** For the molecule CCOS(=O)(=O)[O-].CCn1cc[n+](C)c1 [1-ethyl-3-methylimidazolium ethyl sulfate] , give its reported refractive index.
**A:** 1.4784
